Target: D(1A) dopamine receptor (Homo sapiens, UniProt P21728)
Sequence (P21728 whole entry): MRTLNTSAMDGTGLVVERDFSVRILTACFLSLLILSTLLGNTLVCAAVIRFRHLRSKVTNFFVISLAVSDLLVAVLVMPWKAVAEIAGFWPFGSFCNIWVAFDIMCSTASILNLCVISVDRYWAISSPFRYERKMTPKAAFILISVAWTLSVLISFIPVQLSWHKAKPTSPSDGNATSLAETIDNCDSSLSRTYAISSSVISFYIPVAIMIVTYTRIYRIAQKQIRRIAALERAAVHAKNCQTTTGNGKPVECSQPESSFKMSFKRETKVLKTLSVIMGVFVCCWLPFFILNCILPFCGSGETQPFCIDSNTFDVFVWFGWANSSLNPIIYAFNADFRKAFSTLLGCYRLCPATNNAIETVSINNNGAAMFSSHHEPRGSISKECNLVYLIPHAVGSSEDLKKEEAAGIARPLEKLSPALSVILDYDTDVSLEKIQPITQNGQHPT
Test: Agonist activity at D1 receptor (unknown origin) expressed in CHOK1 cells assessed as increase in cAMP accumulation at 10 uM measured after 30 mins
Format: functional, cell-based
measure: Activity (%)
Please respond with the number in % and leave the unit unwritten.

compound	Activity (%)
COc1ccc2c(c1OC)CN1CCc3cc(O)c(O)cc3C1C2 (racemic)	-3.17
COc1ccc2c(c1OC(C)=O)CN1CCc3cc4c(cc3C1C2)OCO4 (racemic)	0

Entry COc1cc2c(cc1OC)C1Cc3ccc(O)cc3CN1CC2 (racemic) ; Activity = -3.91

Reported Activity of COc1cc(/C=C/C(=O)Oc2c(OC)ccc3c2CN2CCc4cc5c(cc4C2C3)OCO5)ccc1OC(C)=O (racemic) : -3.69

Form: compound = COc1cc2c(cc1OC)C1Cc3ccc(OC)c(O)c3CN1CC2 (racemic) ; Activity = -4.32

The recorded Activity for entry COc1ccc2c(c1O)CN1CCc3cc(O)c(O)cc3C1C2 (racemic) equals -5.41

The compound listed as Oc1ccc2c(c1)CN1CCc3cc4c(cc3C1C2)OCO4 (racemic) shows Activity equal to -4.41

###

Target: UniProt P21728
Test: Antagonist activity at D1 receptor (unknown origin) expressed in CHOK1 cells assessed as inhibition of SKF38393-induced cAMP accumulation measured after 30 mins
Assay type: functional, cell-based
pIC50: −log10 of the molar value.
The following molecules are shown together with reported pIC50 values.

molecule	pIC50
COc1cc2c(c(OC)c1O)CC1c3cc4c(cc3CCN1C2)OCO4 (racemic)	5.13
COc1cc(/C=C/C(=O)Oc2c(OC)ccc3c2CN2CCc4cc5c(cc4C2C3)OCO5)ccc1OC(C)=O (racemic)	< 5.00
c1ccc(COc2cccc3c2CC2c4cc5c(cc4CCN2C3)OCO5)cc1 (racemic)	< 5.00
COc1ccc2c(c1O[C@@H]1O[C@H](CO)[C@@H](O)[C@H](O)[C@H]1O)CN1CCc3cc4c(cc3[C@@H]1C2)OCO4	< 5.00
COc1ccc2c(c1O[C@@H]1O[C@H](CO)[C@@H](O)[C@H](O)[C@H]1O)CN1CCc3cc4c(cc3[C@H]1C2)OCO4	< 5.00

So for COc1cc2c(cc1OC)C1Cc3c(cc(OC)c(O)c3OC)CN1CC2 (racemic) , the logged pIC50 turned out to be < 5.00

Given item COc1cc2c(cc1OC)C1Cc3ccc(O)cc3CN1CC2 (racemic) , the value recorded as its pIC50 is 5.19

The reported value for COc1ccc2c(c1OC)CN1CCc3cc(O)c(O)cc3C1C2 (racemic) in terms of pIC50 is 6.20

###

Reported pIC50 values are given for each entry in this list.
Target: D(2) dopamine receptor (Homo sapiens, UniProt P14416)
Sequence (P14416 whole entry): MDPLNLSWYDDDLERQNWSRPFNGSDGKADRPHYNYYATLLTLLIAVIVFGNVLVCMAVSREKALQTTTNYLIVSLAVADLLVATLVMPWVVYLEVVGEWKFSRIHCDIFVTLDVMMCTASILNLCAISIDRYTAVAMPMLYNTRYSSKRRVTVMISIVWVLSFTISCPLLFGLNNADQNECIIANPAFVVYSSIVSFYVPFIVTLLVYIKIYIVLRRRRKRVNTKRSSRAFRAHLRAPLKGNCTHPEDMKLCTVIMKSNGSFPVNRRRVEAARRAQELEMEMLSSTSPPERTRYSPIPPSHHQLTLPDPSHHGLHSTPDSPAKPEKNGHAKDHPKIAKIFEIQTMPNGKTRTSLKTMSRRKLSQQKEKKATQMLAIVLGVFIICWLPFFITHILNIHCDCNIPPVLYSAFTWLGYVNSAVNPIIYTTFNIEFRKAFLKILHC
Assay: Antagonist activity at D2 receptor (unknown origin) expressed in CHOK1 cells assessed as inhibition of dopamine-induced calcium flux preincubated for 60 mins at 37 degC followed by 15 mins incubation under room temperature and subsequent dopamine addition measured after 20 secs for 100 secs by calcium-4 dye based FLIPR assay
Interpret pIC50 as the negative base-10 log of the concentration measured in mol/L.

Item COc1cc2c(cc1O)CC1c3cc(OC)c(OC)cc3CCN1C2 (racemic) was tested on D(2) dopamine receptor (Homo sapiens, UniProt P14416); the reported pIC50 is 5.59
